- measurement-protocol: reducers of endogenous Her2 protein level, primary screen, SKBR3 breast tumor cells, AlphaScreen, ATP viability (AID 461);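 further: percent of carrier control wells set as 100% viability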
- settings: 18-24 h, measured here: SKBR3 viability, ATP luminescence, at 10 µM
quantity-kind: viability (%)

| compound | units | test-result |
| --- | --- | --- |
| CC(NC(=O)COc1ccccc1)C(=O)NC1=NCCS1 (stereo not given) | % | 89 |
| CCOC(=O)C1=C(CN2CCOCC2)NC(=O)NC1c1cc(C)ccc1C (stereo not given) | % | 92 |
| O=C(Nc1ccc2c(c1)OCO2)C1CCCN1C(=O)Nc1ccccc1F (stereo not given) | % | 110 |
| CC1C(c2ccccc2)N(C)CCC12NC(=O)NC2=O (stereo not given) | % | 89 |
| O=C(CNS(=O)(=O)c1ccc(Br)s1)N1CCCC1 | % | 118 |
| CCOC(=O)C1=C(C)NC2=C(C(=O)CC(C)(C)C2)C1c1ccc(N(C)C)cc1 (stereo not given) | % | 93 |
| Cc1ccc(NC(=O)CSc2nnc(Cc3cccn3C)n2-c2ccc(F)cc2)cc1 | % | 82.5 |
| O=C1c2ccccc2CN1CCNS(=O)(=O)c1ccc(Cl)cc1 | % | 104 |
| COCC(C)NC(=O)NC(=O)c1ccc(Cl)cc1 (stereo not given) | % | 99.5 |
| COc1ccc(CC(=O)OCC(=O)NC(=O)NC2CCCCC2)cc1 | % | 96.5 |
| O=C(CSc1nnc(-c2ccco2)c(-c2ccco2)n1)Nc1ccccc1 | % | 102 |
| CC1CCC(C(=O)NC(C(=O)NCCN2CCC(C)CC2)C(C)C)CC1 (stereo not given) | % | 126 |
| O=C1CC(N2CCOCC2)C(=O)N1c1ccccc1Cl (stereo not given) | % | 103 |
| CCC(C)OC(=O)n1ccc(C(=O)Nc2nccs2)n1 (stereo not given) | % | 106 |
| COc1ccc(-c2cc(C(=O)NCCc3ccccc3)no2)cc1OC | % | 102 |
| CCn1c(=O)cc(SCC(=O)Nc2cccnc2)c2ccccc21 | % | 91.5 |
| Cc1cc(C)c(Cn2c(=O)n(CCCC(=O)NCc3ccco3)c(=O)c3ccccc32)c(C)c1 | % | 99 |
| Nn1c(SCC(=O)Nc2ccc(Oc3ccccc3)cc2)nnc1C1CC1 | % | 98.5 |
| COC(=O)c1ccc(CSc2nc3c(cnn3-c3ccc(F)cc3)c(=O)[nH]2)o1 | % | 99 |
| O=C(Nc1cccc(O)c1)c1ccccc1 | % | 93 |
| COc1ccc(Br)cc1CNC(=O)CCc1nc(-c2ccc(C)cc2)no1 | % | 101 |
| CCOc1ccc(C(=O)N(Cc2ccc(N(C)C)cc2)C2CCS(=O)(=O)C2)cc1 (stereo not given) | % | 114 |
| CCOC(=O)c1c(NC(=O)c2cccs2)sc(C)c1C | % | 77 |
| CCOC(=O)C1CCCN(C/C(O)=C(\C#N)c2nc(-c3ccc(Cl)cc3)cs2)C1 (stereo not given) | % | 78.5 |
| CN(C(=O)COC(=O)C1CCN(S(=O)(=O)c2cccs2)CC1)C1CCS(=O)(=O)C1 (stereo not given) | % | 118 |
| CC1(C)CC(=O)C(CC2=C(O)CC(C)(C)CC2=O)=C(O)C1 | % | 95 |
| CCOC(=O)c1[nH]c(=O)c2ccccc2c1O | % | 106 |
| COc1ccc(-c2noc(CN(C(=O)C(C)(C)C)C(C)C)n2)cc1 | % | 96 |
| COc1cccc(NC(=O)N[C@@H](Cc2ccccc2)C(=O)O)c1 | % | 94 |
| COC(=O)C(NC(C)=O)(Nc1ccccn1)C(F)(F)F (stereo not given) | % | 98 |
| CCC(CO)Nc1ncnc2c1cnn2-c1ccc(Cl)cc1 (stereo not given) | % | 94.5 |
| CCOC(OCC)P(=O)(C(C)C)C(C)C | % | 87 |
| N=c1c(C(=O)NCc2ccc(F)cc2)cc2c(=O)n3ccccc3nc2n1CCCN1CCOCC1 | % | 95 |
| CCOc1cc(NC(=O)c2ccco2)c(OCC)cc1NC(=O)CCC(=O)NCc1cccnc1 | % | 95.5 |
| Cn1c(=O)oc2cc(S(=O)(=O)NCCC(=O)N3CCc4ccccc4C3)ccc21 | % | 102 |
| O=C(O)c1cc2c([nH]c1=O)CCCC2 | % | 93.5 |
| OCCNCC(O)Cn1ccc2ccccc21 (stereo not given) | % | 118 |
| Cn1c(=O)c2c(nc(NCCc3ccccc3)n2CC(=O)NCCc2ccccc2)n(C)c1=O | % | 91 |
| CCOC(=O)c1ccc(NC(=O)NC(C)C2CCCO2)cc1 (stereo not given) | % | 97.5 |
| O=C(CN1CCC(n2nnc3cc(F)ccc32)CC1)Nc1ccc2c(c1)CCC2 | % | 93 |
| CSCCC(NS(=O)(=O)c1ccc2c(c1)oc(=O)n2C)C(=O)NC1CCCCC1 (stereo not given) | % | 91 |
| CCOc1ccc(-n2cc(C(=O)N3CCN(C)CC3)c3cc(OC)c(OC)cc3c2=O)cc1 | % | 87 |
| Cc1cccc2cc(CN(Cc3nnnn3Cc3ccccc3)C3CCCC3)c(=O)[nH]c12 | % | 85 |
| CCOC(=O)Cn1c(S(=O)(=O)Cc2ccccc2)nc2ccccc21 | % | 86 |
| O=C(Nc1ccc(N2CCOCC2)cc1)c1cccc(S(=O)(=O)N2CCCC2)c1 | % | 88.5 |
